Recorded values, source patent US20240246941A1.

target: UniProt:P43364; test: TR-FRET single point screening at 15 μM; format: binding; design: unit not given here; details: single point TR-FRET screening at 15 μM against MAGE-A11:PCF11
// reported TR-FRET signal per item
The reply should be a number, written without any unit.

The following compounds have reported results that may help.
CC(=O)Nc1ccc(S(=O)(=O)N2CCN(c3ccnc4cc(Cl)ccc34)CC2)cc1 [SJ000193862] | −16.19
CCOc1ccc2ncc(S(=O)(=O)c3ccccc3)c(N3CCN(C)CC3)c2c1 [SJ000083948] | −3.938

Prompt: Indicate the recorded TR-FRET signal value for this compound: COc1ccccc1N1CCN(c2c(S(=O)(=O)c3ccc(C)cc3)cnc3ccccc23)CC1 [SJ000117065]
Completion: −8.687

Prompt: Indicate the recorded TR-FRET signal value for this compound: Clc1ccc(CN(CCCCNc2ccnc3cc(Cl)ccc23)Cc2ccccc2)c(Cl)c1 [SJ000361207]
Completion: 35.43

Prompt: Indicate the recorded TR-FRET signal value for this compound: CCc1ccc2ncc(S(=O)(=O)c3ccc(C)cc3)c(N3CCN(CC)CC3)c2c1 [SJ000083962]
Completion: 2.377

Prompt: Indicate the recorded TR-FRET signal value for this compound: COc1ccc2ncc(S(=O)(=O)c3ccccc3)c(N3CCN(c4ccc(F)cc4)CC3)c2c1 [SJ000083978]
Completion: −133.1

Prompt: Indicate the recorded TR-FRET signal value for this compound: CCN1CCN(c2c(S(=O)(=O)c3ccc(Cl)cc3)cnc3ccc(C)cc23)CC1 [SJ000083967]
Completion: −3.098

* * *

// reported IC50 per item
biological target: interaction between GST-MAGEA11 MHD and FAM-PCF11_4 peptide (MAGE-A11:PCF11) (Homo sapiens (Human), UniProt P43364); assay: TR-FRET dose response competition assay for disruption of MAGE-A11:PCF11 binding; settings: Table 8, representative compounds; read-out: TR-FRET IC50
Quick reminder: number only, in µM, skip the unit.

The following compounds have reported results that may help.
Cc1cc(C)c(CNCCCNc2ccnc3cc(Cl)ccc23)c(C)c1 | 68.1
FC(F)(F)c1cc(-c2ccc3c(NCCCNCc4cccc5c4OCO5)ccnc3c2)cc(C(F)(F)F)c1 | 9.02
Clc1ccc2c(NCCCNCc3ccc4[nH]ccc4c3)ccnc2c1 | 67.1
Cc1cccc(CNCCCNc2ccnc3cc(Cl)ccc23)c1 | 69.9
COc1cccc(F)c1CNCCCNc1ccnc2cc(C(F)(F)F)ccc12 | 69.9

Prompt: Indicate the recorded IC50 value for this compound: COc1ccc(F)cc1CNCCCNc1ccnc2cc(Oc3ccccc3)ccc12
Completion: 29

Prompt: Indicate the recorded IC50 value for this compound: COc1ccc(F)cc1CNCCCNc1ccnc2cc(Cc3ccccc3)ccc12
Completion: 18.3

Prompt: Indicate the recorded IC50 value for this compound: COC1CCCC(F)CC1CNCCCNc1ccnc2cc(CCc3ccccc3)ccc12 (stereo not drawn)
Completion: 37.1

Prompt: Indicate the recorded IC50 value for this compound: CN(C)c1cccc(Oc2ccc3c(NCCCNCc4cccc5c4OCO5)ccnc3c2)c1
Completion: 69.9

Prompt: Indicate the recorded IC50 value for this compound: COc1ccc(F)cc1CNCCCNc1ccnc2cc(-c3ccccc3)ccc12
Completion: 28.2

* * *

molecular target: interaction between GST-MAGEA11 MHD and FAM-PCF11_4 peptide (MAGE-A11:PCF11) (Homo sapiens (Human)); assay: TR-FRET dose response competition assay for disruption of MAGE-A11:PCF11 binding; conditions: Dose response TR-FRET screening of nine scaffold groups against MAGE-A11:PCF11; read-out: consensus IC50
PROPERTY_LABEL: pIC50
The value called pIC50 is obtained by taking minus log10 of the concentration in mol/L.

CCCCCn1c(-c2cccc(OC)c2)nc2c1c(=O)[nH]c(=O)n2CCCC | 4.16
COc1cccc(CNCCCNc2ccnc3cc(Oc4ccc(C(C)(C)C)cc4)ccc23)c1O | 5.12
CCNC1=C(Cl)C(=O)c2ccccc2C1=O | 4.16

Turning now to a further record.
Prompt: Indicate the recorded pIC50 value for this compound: COc1ccc2cc(C3Nc4ccccc4C(=O)N3CCCN3CCOCC3)ccc2c1 (stereo not drawn)
Completion: 4.17

* * *

// reported IC50 per item
molecular target: interaction between GST-MAGEA11 MHD and FAM-PCF11_4 peptide (MAGE-A11:PCF11) (Homo sapiens (Human), UniProt P43364); test: TR-FRET dose response competition assay for disruption of MAGE-A11:PCF11 binding; settings: Dose response TR-FRET screening of nine scaffold groups against MAGE-A11:PCF11; read-out: consensus IC50
Quick reminder: number only, in µM, skip the unit.

The following compounds have reported results that may help.
O=C1c2ccccc2NC(c2ccc(Br)cc2)N1Cc1ccc(Cl)cc1 (centres unmarked) | 69.9
c1cc(CNCCCNc2ccnc3cc(-c4cccc5ccccc45)ccc23)c2c(c1)OCO2 | 31.2
COc1cccc(CNCCCNc2ccnc3cc(Cc4cccc(C(F)(F)F)c4)ccc23)c1O | 27.5
COc1cccc(Oc2ccc3c(NCCCNCc4cc(F)ccc4OC)ccnc3c2)c1 | 36.8
CCCCn1c(-c2ccc(OCCC)c(OCC)c2)nc2c1c(=O)[nH]c(=O)n2CCC | 69.9

Prompt: Indicate the recorded IC50 value for this compound: Cn1c(-c2ccc3c(c2)OCO3)nc2c1c(=O)[nH]c(=O)n2C
Completion: 69.9

Prompt: Indicate the recorded IC50 value for this compound: Cc1ccc(-c2nc3c(c(=O)[nH]c(=O)n3CC(C)C)n2CC(C)C)cc1[N+](=O)[O-]
Completion: 69.9

Prompt: Indicate the recorded IC50 value for this compound: COc1ccc(CN2C(=O)c3ccccc3NC2c2ccc(C)cc2)cc1 (centres unmarked)
Completion: 69.9

Prompt: Indicate the recorded IC50 value for this compound: CCCn1c(-c2cccc(C(F)(F)F)c2)nc2c1c(=O)[nH]c(=O)n2Cc1ccccc1
Completion: 69.9

Prompt: Indicate the recorded IC50 value for this compound: O=C1OCC(c2ccc(Cl)cc2)=C1c1ccc([N+](=O)[O-])cc1
Completion: 69.9

Prompt: Indicate the recorded IC50 value for this compound: CCCCCCCCOc1ccc(NC2=C(N)C(=O)c3ccccc3C2=O)cc1
Completion: 54.8

Prompt: Indicate the recorded IC50 value for this compound: COc1ccc(F)c(CNCCCNc2ccnc3cc(Cl)ccc23)c1
Completion: 69.9

* * *

// reported IC50 per item
target: interaction between GST-MAGEA11 MHD and FAM-PCF11_4 peptide (MAGE-A11:PCF11) (Homo sapiens (Human), UniProt P43364); assay: TR-FRET dose response competition assay for disruption of MAGE-A11:PCF11 binding; conditions: Table 5, dose response TR-FRET screening of 59 quinoline compounds against MAGE-A11:PCF11; read-out: TR-FRET IC50
Quick reminder: number only, in µM, skip the unit.

The following compounds have reported results that may help.
Clc1ccc2c(NCCCCN(Cc3ccccc3)Cc3ccc4[nH]ccc4c3)ccnc2c1 | 23.4
FC(F)(F)c1ccc(-c2ccc3c(NCCCNCc4ccco4)ccnc3c2)cc1 | 22.7
CC(C)(C)c1ccc(Oc2ccc3c(NCCCNCc4ccco4)ccnc3c2)cc1 | 32.1

Turning now to a further record.
Prompt: Indicate the recorded IC50 value for this compound: CCCN(CCCNc1ccnc2cc(C(F)(F)F)ccc12)Cc1ccc2[nH]ccc2c1
Completion: 33.2

* * *

target: MAGE-A11:PCF11 (Homo sapiens (Human), UniProt P43364); assay: TR-FRET single point screening at 15 μM; type: binding; parameters: unit not given here; settings: single point TR-FRET screening of quinoline compounds against MAGE-A11:PCF11; 15 μM
Sequence (P43364 218-429): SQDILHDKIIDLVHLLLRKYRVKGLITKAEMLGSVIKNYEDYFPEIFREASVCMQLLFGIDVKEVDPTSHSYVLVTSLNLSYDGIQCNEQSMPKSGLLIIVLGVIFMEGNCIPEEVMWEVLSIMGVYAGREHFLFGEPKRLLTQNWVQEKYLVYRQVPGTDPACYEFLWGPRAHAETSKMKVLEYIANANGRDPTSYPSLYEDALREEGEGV
// bucketize TR-FRET signal: one (below 10), two (10 to below 30), three (30 or more)

CCCN(CCCNc1ccnc2cc(Cl)ccc12)Cc1ccc(F)cc1 [SJ000522759] | two
CCCN(CCCNc1ccnc2cc(C(F)(F)F)ccc12)Cc1ccc(OC)c(F)c1 [SJ000521013] | two
CCCN(CCCNc1ccnc2cc(C(F)(F)F)ccc12)Cc1ccccc1OC [SJ000523072] | three
CN(C)CCCNc1c2c(nc3ccccc13)CCC2 [SJ000029259] | two

Prompt: Which band does CCCN(CCCNc1c2ccc(Cl)cc2nc2ccc(OC)cc12)Cc1cccc2ccccc12 [SJ000520952] fall in?
Completion: one

Prompt: Which band does CC(C)CCN(CCCNc1ccnc2cc(Cl)ccc12)Cc1ccccc1 [SJ000311183] fall in?
Completion: one

Prompt: Which band does Fc1ccc(Cc2ccc3c(NCCCNCc4ccco4)ccnc3c2)c(Cl)c1 [SJ000311322] fall in?
Completion: two

Prompt: Which band does COc1ccc2nc3cc(Cl)ccc3c(NCCCNCc3c(Cl)ccc(Cl)c3Cl)c2c1 [SJ000522960] fall in?
Completion: one

Prompt: Which band does CCCN(CCCNc1ccnc2cc(C(F)(F)F)ccc12)Cc1cc2ccccc2o1 [SJ000520479] fall in?
Completion: one

Prompt: Which band does CC(C)(C)c1ccc(-c2ccc3c(NCCCNCc4ccco4)ccnc3c2)cc1 [SJ000311286] fall in?
Completion: three

Prompt: Which band does FC(F)(F)c1ccc2c(NCCCNCc3cc(Br)cs3)ccnc2c1 [SJ000521056] fall in?
Completion: three

Prompt: Which band does CCCN(CCCNc1ccnc2cc(C(F)(F)F)ccc12)Cc1cc(F)ccc1C [SJ000521014] fall in?
Completion: two

Prompt: Which band does CCCN(CCCNc1c2ccc(Cl)cc2nc2ccc(OC)cc12)Cc1cc(OC)ccc1F [SJ000522965] fall in?
Completion: one

Prompt: Which band does CCOC(=O)c1cnc2c(C)cc(C)cc2c1NCCCN(C)C [SJ000037397] fall in?
Completion: two

Prompt: Which band does CCCN(CCCNc1c2ccc(Cl)cc2nc2ccc(OC)cc12)Cc1c(C)cc(C)cc1C [SJ000520934] fall in?
Completion: one

Prompt: Which band does Clc1ccc2c(NCCCN(Cc3ccccc3)Cc3ccc4[nH]ccc4c3)ccnc2c1 [SJ000520430] fall in?
Completion: three

Prompt: Which band does CC(C)(C)CCN(CCCNc1ccnc2cc(Cl)ccc12)Cc1ccccc1 [SJ000357578] fall in?
Completion: two

Prompt: Which band does CCC(CC)c1ccc2c(NCCCNCc3ccco3)ccnc2c1 [SJ000311266] fall in?
Completion: two

Prompt: Which band does CCCN(CCCNc1c2ccc(Cl)cc2nc2ccc(OC)cc12)Cc1ccc([N+](=O)[O-])cc1 [SJ000520949] fall in?
Completion: one

Prompt: Which band does CCCN(CCCNc1ccnc2cc(C(F)(F)F)ccc12)Cc1cccc(OC)c1O [SJ000361260] fall in?
Completion: two
